Ref: paper PMC10893060

- Tested on: MDA-MB-231
- Protocol Text: MTT antiproliferative assay, MDA-MB-231
- Type: cell-based
- Experimental Setup: Homo sapiens, 72 h, no IC50 calculated when less than 50% inhibition at 10 μM
Observation Type: IC50 (µM)
Expressed in µM, but write only the number.

Compound	Unit Symbol	Measured Number
C[C@]12CCC3[C@](CC[C@@H]4[C@](C)(C(=O)OCc5ccccc5)CCC[C@@]34C)(C1)[C@H](CNCc1ccc(F)cc1)[C@H]2O (some centres unmarked) [Compound 5]	µM	5.98
CC12CCC3C(CC[C@@H]4[C@](C)(C(=O)OCc5ccccc5)CCC[C@@]34C)(C1)[C@H](CNCCCn1ccnc1)[C@H]2O (some centres unmarked) [Compound 20]	µM	1.78
C[C@@H](NC[C@@H]1[C@@H](O)[C@@]2(C)CCC3[C@]1(CC[C@@H]1[C@](C)(C(=O)OCc4ccccc4)CCC[C@@]31C)C2)c1ccc(F)cc1 (some centres unmarked) [Compound 15]	µM	4.28
C#CCOC(=O)[C@]1(C)CCC[C@@]2(C)C3CC[C@@]4(C)C[C@]3(CC[C@H]12)[C@H](CNCc1ccc(F)cc1)[C@H]4O (some centres unmarked) [Compound 14]	µM	2.23
CC[C@@H](NC[C@@H]1[C@@H](O)[C@@]2(C)CCC3[C@]1(CC[C@@H]1[C@](C)(C(=O)OC)CCC[C@@]31C)C2)c1ccccc1 (some centres unmarked) [Compound 24]	µM	4.99

The reported IC50 of the compound COC(=O)[C@]1(C)CCC[C@@]2(C)C3CC[C@@]4(C)C[C@]3(CC[C@H]12)[C@H](CN[C@H](C)c1ccc2ccccc2c1)[C@H]4O (some centres unmarked) [Compound 27] was 4.11

The reported IC50 of the compound C[C@H](NC[C@@H]1[C@@H](O)[C@@]2(C)CCC3[C@]1(CC[C@@H]1[C@](C)(C(=O)OCc4ccccc4)CCC[C@@]31C)C2)c1cccc2ccccc12 (some centres unmarked) [Compound 19] was 7.29

The reported IC50 of the compound COC(=O)[C@]1(C)CCC[C@@]2(C)C3CC[C@@]4(C)C[C@]3(CC[C@H]12)[C@H](CN[C@H](C)c1ccc(F)cc1)[C@H]4O (some centres unmarked) [Compound 23] was 5.08

The reported IC50 of the compound COC(=O)[C@]1(C)CCC[C@@]2(C)C3CC[C@@]4(C)C[C@]3(CC[C@H]12)[C@H](CN[C@@H](C)c1ccc2ccccc2c1)[C@H]4O (some centres unmarked) [Compound 26] was 6.07

The reported IC50 of the compound CC[C@H](NC[C@@H]1[C@@H](O)[C@@]2(C)CCC3[C@]1(CC[C@@H]1[C@](C)(C(=O)OC)CCC[C@@]31C)C2)c1ccccc1 (some centres unmarked) [Compound 25] was 6.53

The reported IC50 of the compound C[C@@H](NC[C@@H]1[C@@H](O)[C@@]2(C)CCC3[C@]1(CC[C@@H]1[C@](C)(C(=O)OCc4ccccc4)CCC[C@@]31C)C2)c1cccc2ccccc12 (some centres unmarked) [Compound 18] was 4.63

The reported IC50 of the compound COC(=O)[C@]1(C)CCC[C@@]2(C)C3CC[C@@]4(C)C[C@]3(CC[C@H]12)[C@H](CNCCCn1ccnc1)[C@H]4O (some centres unmarked) [Compound 28] was 4.34

====

- Tested on: MDA-MB-231
- Protocol Text: MTT antiproliferative assay, MDA-MB-231
- Type: cell-based
- Experimental Setup: Homo sapiens, 72 h, no IC50 calculated when less than 50% inhibition at 10 μM
Observation Type: pIC50
The read-out pIC50 is expressed as -log10 of concentration in moles per litre.

Compound	pIC50
CC[C@@H](NC[C@@H]1[C@@H](O)[C@@]2(C)CCC3[C@]1(CC[C@@H]1[C@](C)(C(=O)OCc4ccccc4)CCC[C@@]31C)C2)c1ccccc1 (stereo partly drawn)	5.32

Would you kindly look at the next entry?
The reported pIC50 of the compound CC[C@H](NC[C@@H]1[C@@H](O)[C@@]2(C)CCC3[C@]1(CC[C@@H]1[C@](C)(C(=O)OCc4ccccc4)CCC[C@@]31C)C2)c1ccccc1 (stereo partly drawn) was 5.39
